Measurement type: melting point

Recorded results for 4 molecules are shown here.
INSERT INTO assay_data (molecule, measurement_type, measured_result) VALUES
  ('Nc1cc(C(c2cc(F)ccc2F)S(=O)(=O)c2ccc(Cl)cc2)c(Cl)cn1 (stereo not shown)', 'melting point', '147 to 150 °C'),
  ('COc1ccc(CNc2cc(C(c3cc(F)ccc3F)S(=O)(=O)c3ccc(F)cc3)c(Cl)cn2)cc1OC (stereo not shown)', 'melting point', '158 to 159 °C'),
  ('N#Cc1ccc(F)c(C(c2cc(N)ncc2Cl)S(=O)(=O)c2ccc(Cl)cc2)c1 (stereo not shown)', 'melting point', '> 220 °C'),
  ('COC(=O)CCc1ccc(C(c2cc(F)ccc2F)S(=O)(=O)c2ccc(Cl)cc2)nc1 (stereo not shown)', 'melting point', '121 to 123 °C');

Recorded melting point for O=S(=O)(c1ccc(Cl)cc1)C(c1ccc(CN2CCOCC2)cn1)c1cc(F)ccc1F (stereo not shown) , please?
120 to 121 °C

Recorded melting point for CN(C)S(=O)(=O)NCc1ccc(C(c2cc(F)ccc2F)S(=O)(=O)c2ccc(Cl)cc2)nc1 (stereo not shown) , please?
177 to 178 °C

Recorded melting point for COc1cccnc1C(c1cc(F)ccc1F)S(=O)(=O)c1ccc(Cl)cc1 (stereo not shown) , please?
184 to 185 °C

----------
Where a name gives a salt, the structure may show the parent alone.
Measurement type: melting point

INSERT INTO assay_data (compound, measured_result) VALUES
  ('O=S(=O)(c1ccc(Cl)cc1)C(c1cc(F)ccc1F)c1cc(NCCOCCO)ncc1Cl (centres unmarked)', '113 to 115 °C'),
  ('O=C1NCCCN1c1cc(C(c2cc(F)ccc2F)S(=O)(=O)c2ccc(Cl)cc2)c(Cl)cn1 (centres unmarked)', '> 230 °C'),
  ('O=S(=O)(c1ccc(Cl)cc1)C(c1cc(F)ccc1F)c1cc(CO)ncc1Cl (centres unmarked)', '164 to 165 °C'),
  ('O=S(=O)(c1ccc(Cl)cc1)C(c1cccc(CCc2ccccn2)n1)c1cc(F)ccc1F (centres unmarked)', '88 to 89 °C'),
  ('COc1ccc(-n2ccnc2C(c2cc(F)ccc2F)S(=O)(=O)c2ccc(Cl)cc2)cc1 (centres unmarked)', '150 to 151 °C'),
  ('Cc1ccc(S(=O)(=O)NCC(=O)NCc2ccc(C(c3cc(F)ccc3F)S(=O)(=O)c3ccc(Cl)cc3)nc2)cc1 (centres unmarked)', '217 to 218 °C'),
  ('Nc1cc(C(c2cc(F)ccc2F)S(=O)(=O)c2ccc(Cl)c(F)c2)c(Cl)cn1 (centres unmarked)', '159 to 160 °C'),
  ('O=S(=O)(c1ccc(Cl)cc1)C(c1cc(F)ccc1F)c1ncc(CO)cc1F (centres unmarked)', '181 to 183 °C'),
  ('O=C(O)CCc1cc(C(c2cc(F)ccc2F)S(=O)(=O)c2ccc(Cl)cc2)c(Cl)cn1 (centres unmarked)', '194 to 196 °C'),
  ('O=S(=O)(c1ccc(Cl)cc1)C(c1ccc(CN2CCCCC2)cn1)c1cc(F)ccc1F (centres unmarked)', '113 to 114 °C');

Recorded melting point for O=S(=O)(c1ccc(Cl)cc1)C(c1ccncc1)C1CCOCC1 (centres unmarked) , please?
208 to 209 °C

Recorded melting point for Nc1cccc(C(c2cc(F)ccc2F)S(=O)(=O)c2ccc(Cl)cc2)n1 (centres unmarked) , please?
183 to 184 °C

Recorded melting point for O=S(=O)(c1ccc(Cl)cc1)C(c1cc(F)ccc1F)c1cc(NCCc2ccncc2)ncc1Cl (centres unmarked) , please?
148 to 150 °C

Recorded melting point for O=S(=O)(CCN1CCOCC1)Nc1cc(C(c2cc(F)ccc2F)S(=O)(=O)c2ccc(Cl)cc2)c(Cl)cn1 (centres unmarked) , please?
219 to 221 °C

Recorded melting point for CN(C)CC(=O)NCc1ccc(C(c2cc(F)ccc2F)S(=O)(=O)c2ccc(Cl)cc2)nc1 (centres unmarked) , please?
177 to 179 °C

Recorded melting point for NCCNC(=O)c1ccc(C(c2cc(F)ccc2F)S(=O)(=O)c2ccc(Cl)cc2)nc1 (centres unmarked) (as salt: hydrochloride) , please?
> 250 °C (dec.)

Recorded melting point for Nc1cc(C(c2cc(F)ccc2F)S(=O)(=O)c2ccc(Cl)nc2)c(Cl)cn1 (centres unmarked) , please?
157 to 158 °C

Recorded melting point for O=C(Nc1nccs1)c1cnc(C(c2cc(F)ccc2F)S(=O)(=O)c2ccc(Cl)cc2)c(F)c1 (centres unmarked) , please?
243 to 245 °C

Recorded melting point for O=S(=O)(c1ccc(Cl)cc1)C(c1cc(F)ccc1F)c1cc(NS(=O)(=O)N2CCCCC2)ncc1Cl (centres unmarked) , please?
192 to 194 °C

Recorded melting point for C=CCOc1cccnc1C(c1cc(F)ccc1F)S(=O)(=O)c1ccc(Cl)cc1 (centres unmarked) , please?
119 to 120 °C

Recorded melting point for CN1CCC(C(c2ccncc2)S(=O)(=O)c2ccc(Cl)cc2)CC1 (centres unmarked) , please?
176 to 177 °C

Recorded melting point for O=S(=O)(c1ccc(Cl)cc1)C(c1cncnc1)c1cc(F)ccc1F (centres unmarked) , please?
136 to 137 °C

Recorded melting point for Nc1cc(C(c2c(F)cccc2F)S(=O)(=O)c2ccc(Cl)cc2)c(Cl)cn1 (centres unmarked) , please?
179 to 181 °C

Recorded melting point for O=S(=O)(c1ccc(Cl)cc1)C(c1cc[n+]([O-])cc1)c1cc(F)ccc1F (centres unmarked) , please?
211 to 212 °C

Recorded melting point for COc1ccc(CNc2cc(C(c3cc(F)ccc3F)S(=O)(=O)c3ccc(Cl)cc3)c(Cl)cn2)cc1OC (centres unmarked) , please?
204 to 206 °C

Recorded melting point for CS(=O)(=O)Nc1cc(C(c2cc(F)ccc2F)S(=O)(=O)c2ccc(F)c(F)c2)c(Cl)cn1 (centres unmarked) , please?
118 to 120 °C

----------
Measurement type: melting point

Recorded results for 2 molecules are shown here.
INSERT INTO assay_data (molecule, measurement_type, measured_result) VALUES
  ('O=S(=O)(Cc1ccc(C(c2cc(F)ccc2F)S(=O)(=O)c2ccc(Cl)cc2)nc1)c1ccc(Cl)cc1 (stereo not drawn)', 'melting point', '186 to 187 °C'),
  ('O=C(O)c1ccc(C(c2cc(F)ccc2F)S(=O)(=O)c2ccc(Cl)cc2)nc1 (stereo not drawn)', 'melting point', '> 230 °C');

Lab note: next molecule to report on.
Recorded melting point for O=S(=O)(c1ccc(Cl)cc1)C(c1cc(F)ccc1F)c1cc(NCCCNc2ncccn2)ncc1Cl (stereo not drawn) , please?
176 to 178 °C

----------
Catalogue of melting point readings, one per entry.

INSERT INTO assay_data (compound, measurement_type, measured_result) VALUES
  ('O=C(O)c1cnc(C(c2cc(F)ccc2F)S(=O)(=O)c2ccc(Cl)cc2)c(F)c1 (stereo not drawn)', 'melting point', '249 to 251 °C');

Recorded melting point for CN1CCN(C(=O)CCc2cnc(C(c3cc(F)ccc3F)S(=O)(=O)c3ccc(Cl)cc3)c(F)c2)CC1.Cl (stereo not drawn) , please?
243 to 245 °C

Recorded melting point for O=C(O)c1cccc(C(c2cc(F)ccc2F)S(=O)(=O)c2ccc(Cl)cc2)n1 (stereo not drawn) , please?
200 to 201 °C

Recorded melting point for O=C(O)CCc1ccc(C(c2cc(F)ccc2F)S(=O)(=O)c2ccc(Cl)cc2)nc1 (stereo not drawn) , please?
158 to 160 °C

Recorded melting point for O=S(=O)(c1ccc(F)cc1)C(c1cc(F)ccc1F)c1cc(NCCO)ncc1Cl (stereo not drawn) , please?
157 to 158 °C

Recorded melting point for COCCCNc1cc(C(c2cc(F)ccc2F)S(=O)(=O)c2ccc(Cl)cc2)c(Cl)cn1 (stereo not drawn) , please?
146 to 148 °C
